# assay_explanation: protein stability index of a GFP-peptide fusion (yeast GPS) (PSI 1-4); higher = more stable; sorted into four equal gates, so the index is relative within each strain
# stated_conditions: ubr1∆
The reader will find reported protein stability index values listed item by item below.
endpoint_name: protein stability index

INSERT INTO assay_data (record_sequence, endpoint_name, value_observed) VALUES
  ('EQQKGQQTAQTQLEQQR [SNF5]', 'protein stability index', 3.1),
  ('ECPVGEFLINEGTPINN [RPN14]', 'protein stability index', 2.31),
  ('MSREGFQIPTNLDAAAA [RPC10]', 'protein stability index', 1.16),
  ('SLCTVWKPNPSYDVENV [SRB5]', 'protein stability index', 1.84),
  ('LATYGLTIDDLGVASFH [FAS2]', 'protein stability index', 3.11),
  ('NLSRYPKSGIDIFVYLT [MTR3]', 'protein stability index', 2.27),
  ('ISQLYSDAVMAEHSQNK [YJL041W/NSP1]', 'protein stability index', 2.81),
  ('NEDMVRRANFYKENEAM [SNF12]', 'protein stability index', 3.48),
  ('RYLTLLSNEFTATNSKG [ECM29]', 'protein stability index', 2.83),
  ('KLIIHRKNDNANDHDES [SMC3]', 'protein stability index', 1.36),
  ('LLLKKLDNFQKSVEKTM [SMC3]', 'protein stability index', 2.88),
  ('AVEKTLALGCHFQDQKN [POP7]', 'protein stability index', 2.78),
  ('YTDRDQDEVNKGPAIDE [NNF1]', 'protein stability index', 2.13),
  ('IQYVTYLLTQQQIWKSP [SOH1]', 'protein stability index', 2.09),
  ('DMSKILVDQGFNYSGKD [RET1]', 'protein stability index', 3.49);
